molecules and their reported TGI
test system: SW-620 colon; test: NCI tumour cell line growth inhibition, 48 h

Worked examples, 6 molecules total:
{"Molecule": "O=C1c2ccccc2C(=O)C2C3c4ccccc4C(c4ccccc43)C12 (configuration not stated)", "Target Under Test": "SW-620 colon", "TGI": "> 100 µM"}
{"Molecule": "O=c1c2ccccc2c2c1c1c3ccccc3c(=O)c1c1c3ccccc3c(=O)c21", "Target Under Test": "SW-620 colon", "TGI": "> 100 µM"}
{"Molecule": "N#CC(C#N)=Cc1ccc(C=C2SC3=C(SCCS3)S2)s1", "Target Under Test": "SW-620 colon", "TGI": "> 100 µM"}
{"Molecule": "CCSc1nc(N2CCCCC2)c2cn[nH]c2n1", "Target Under Test": "SW-620 colon", "TGI": "> 100 µM"}
{"Molecule": "COCOCc1cc(OCc2ccccc2)c(OC)cc1Br", "Target Under Test": "SW-620 colon", "TGI": "> 100 µM"}
{"Molecule": "O=C1C=CC[C@H](/C=C/C[C@@H](O)C[C@H](O)/C=C/c2ccccc2)O1", "Target Under Test": "SW-620 colon", "TGI": "27.4 µM"}

Query :: May I ask what TGI has been recorded for NC(CCCNc1cccc(O)c1)C(=O)O (configuration not stated) ?
Result :: > 100 µM

Query :: May I ask what TGI has been recorded for CC(C)c1ccc2c(c1)C=C1OC(=O)[C@]3(C)CCC[C@@]2(C)C13 (some centres not stated) ?
Result :: > 100 µM

Query :: May I ask what TGI has been recorded for COC(=O)C1=COC2OC3/C(=C\c4ccc(O)c(OC)c4)C(=O)OC34C=CC1C24 (configuration not stated) ?
Result :: 35.9 µM

Query :: May I ask what TGI has been recorded for N#CCCN(CCC#N)c1ccc(/C=N\c2nc(-c3ccccc3)cs2)cc1 ?
Result :: > 100 µM

Query :: May I ask what TGI has been recorded for NC(CCCCN=Cc1nc(-c2ccccc2)oc1O)C(=O)O (configuration not stated) ?
Result :: > 100 µM

Query :: May I ask what TGI has been recorded for O=C(O)CSc1nnc(CCCCCCCCc2nnc(SCC(=O)O)o2)o1 ?
Result :: > 100 µM

Query :: May I ask what TGI has been recorded for O=c1[nH]c(=O)n(C2CC(O)C(CO)O2)cc1C#Cc1cc(C(F)(F)F)cc(C(F)(F)F)c1 (configuration not stated) ?
Result :: > 100 µM

Query :: May I ask what TGI has been recorded for Cc1nc(N)c(N2CCN(Cc3ccccc3)CC2)c(=O)[nH]1 ?
Result :: > 100 µM

Query :: May I ask what TGI has been recorded for CC(=O)O[C@H]1[C@@H](OC2CCCC2(c2ccccc2)c2ccccc2)O[N+]([O-])=C[C@@]12COCc1cc3c(cc12)OCO3 (some centres not stated) ?
Result :: > 100 µM

###

system: HCT-116 colon; experiment: NCI tumour cell line growth inhibition, 48 h
molecules and their reported TGI
API: value field is a number in µM; no unit string.

{"Molecule": "Cc1ccc([N+](=O)[O-])cc1NC(=O)C(=O)Cc1cc(=O)oc2cc(O)ccc12", "TGI [µM]": 47.5}
{"Molecule": "COP(=O)(OC)C(O)/C=C(\\Cl)c1ccc(Cl)cc1 (centres undefined)", "TGI [µM]": 36.2}

Query :: Any idea what TGI came out for COc1ccc(Cn2cnc3cc(C(=O)Nc4cccc5ccccc45)ccc32)c(OC)c1 on HCT-116 colon?
Result :: 4.49

Query :: Any idea what TGI came out for CCOC(=O)N[C@H]1CCc2cc(O)c(OC)c(OC)c2-c2ccc(SC)c(=O)cc21 on HCT-116 colon?
Result :: 10.7

###

system: SNB-75 CNS; assay: NCI tumour cell line growth inhibition, 48 h; in the data active = GI50 below about 0.43 µM; inactive = the rest
Outcome field: choose from active, inactive

Check out these entries, answers already filled in.
{"Item Smiles": "N#Cc1c(NC(=O)c2cccc3ccccc23)sc2c1CCCC2", "Assigned Category": "active"}
{"Item Smiles": "COc1cc2c3c(n(CCCCNC(=O)OCC4c5ccccc5-c5ccccc54)c(=O)c2cc1OC)-c1cc2c(cc1C3=O)OCO2", "Assigned Category": "inactive"}
{"Item Smiles": "COc1cc(C(=O)N2CCN(c3ccccc3OC)CC2)c(N)cc1OCc1ccccc1", "Assigned Category": "inactive"}

// next entry
Query :: # lookup: test call for COc1ccc2cc3[n+](cc2c1OC)CCc1cc2c(cc1-3)OCO2
Result :: inactive

###

tested on: 786-0 renal; test: NCI tumour cell line growth inhibition, 48 h; in the data active means GI50 below about 0.43 µM; inactive means the rest
Outcome field: choose from active, inactive

{"Compound": "COc1ccc(Cn2cc3c(c2-c2ccc(O)cc2)CCc2cnoc2-3)cc1", "Assigned Category": "inactive"}
{"Compound": "CC(=O)c1c(O)ccc2c(C)c(C(=O)O)oc12", "Assigned Category": "inactive"}
{"Compound": "Cn1ccnc1C(=O)/C=C/c1ccc(C(=O)Nc2ccccc2O)cc1", "Assigned Category": "inactive"}

Query :: # lookup: test call for CO/N=C(\COc1ccc2c(c1)oc(=O)c1cc(OC)ccc12)c1cccc(OC)c1
Result :: inactive

Query :: # lookup: test call for COc1cc2c3c(n(CCCCNC(=O)OCC4c5ccccc5-c5ccccc54)c(=O)c2cc1OC)-c1cc2c(cc1C3=O)OCO2
Result :: inactive

Query :: # lookup: test call for COc1cc2c3c(n(CCCNC(=O)OCC4c5ccccc5-c5ccccc54)c(=O)c2cc1OC)-c1cc2c(cc1C3=O)OCO2
Result :: inactive

###

system: SK-MEL-2 melanoma; assay: NCI tumour cell line growth inhibition, 48 h
Recorded Metric: TGI (µM)
API: value field is a number in µM; no unit string.

{"Compound": "Oc1ccccc1Nc1nc2ccccc2c2occc12", "TGI / µM": 31}

Query :: May I ask what TGI has been recorded for CC(C)/C(Cl)=N\OC(=O)Nc1ccc(F)c([N+](=O)[O-])c1 ?
Result :: 29.9

Query :: May I ask what TGI has been recorded for O=C(N1CCC(CN=c2cc3n(-c4ccc(Cl)cc4)c4ccccc4nc-3cc2Nc2ccc(Cl)cc2)CC1)N1CC1 ?
Result :: 2.04

Query :: May I ask what TGI has been recorded for COCC(=O)OC1CCn2c1nc1c2C(=O)C(C)=C(NC(C)=O)C1=N (stereo not given) ?
Result :: 6.09

Query :: May I ask what TGI has been recorded for CC(C)C(Sc1nc(-c2ccccc2)c(-c2ccccc2)[nH]1)C(=O)N/N=C/c1ccc([N+](=O)[O-])cc1 (stereo not given) ?
Result :: 29.4

Query :: May I ask what TGI has been recorded for CCOc1ccc(N=Nc2ccc3oc(=O)c(/C(C)=N\NC(=O)CC(=O)Nc4ccc(Cl)cc4)cc3c2)cc1 ?
Result :: 9.32

Query :: May I ask what TGI has been recorded for O=c1oc2ccc(F)cc2c(=O)n1-c1ccc(Cl)cc1F ?
Result :: 2.53

Query :: May I ask what TGI has been recorded for O=C1CSC(=S)N1Cc1cccnc1 ?
Result :: 16.5

###

test system: SN12C renal; assay: NCI tumour cell line growth inhibition, 48 h
Recorded Metric: TGI (µM)
API: value field is a number in µM; no unit string.

Worked examples, 5 compounds total:
{"Compound": "CCN(CC)CCNc1ccc2ncn3c4c(OC)cccc4c(=O)c1c23", "TGI [µM]": 17.7}
{"Compound": "COCC(=O)OC1CCn2c1nc1c2C(=O)C(C)=C(NC(C)=O)C1=N (centres undefined)", "TGI [µM]": 13.4}
{"Compound": "Cc1cc(NCCCCNc2ccnc3cc(Cl)ccc23)nc(Nc2ccc(C(=O)N3CCCC3)cc2)n1", "TGI [µM]": 11.4}
{"Compound": "CC(C)=CC(O)C/C(C)=C/CC/C(C)=C/CCC1(C)C(CCCO)/C(=C(/C)C=O)CCC1(C)O (centres undefined)", "TGI [µM]": 76.2}
{"Compound": "Oc1ccc2ccccc2c1C(c1ccc(Cl)cc1)c1c(O)ccc2ccccc12", "TGI [µM]": 9.72}

Turning to the following compound.
Query :: May I ask what TGI has been recorded for CCC[CH2][Sn]1([CH2]CCC)[O]C(=O)c2cccc(OC)c2[O]1 ?
Result :: 1.71

###

system: UO-31 renal; experiment: NCI tumour cell line growth inhibition, 48 h; in the data active = GI50 below about 0.43 µM; inactive = the rest
Outcome field: choose from true = active, false = inactive

{"Compound": "O=C(Nc1ccc(Cl)cc1)c1ccc([N+](=O)[O-])o1", "Target Under Test": "UO-31 renal", "Assigned Category": "false"}
{"Compound": "O=C1/C(=C/c2ccc([N+](=O)[O-])o2)Oc2ccccc21", "Target Under Test": "UO-31 renal", "Assigned Category": "false"}
{"Compound": "O=C(CC(O)c1ccncc1)c1ccccc1 (centres undefined)", "Target Under Test": "UO-31 renal", "Assigned Category": "false"}

Query :: # lookup: test call for CC(C)=CCc1ccc(O)c(=O)cc1C(C)C
Result :: true
